Origin of measurements: the supplement of paper PMC12494721

Test system: Escherichia coli IAI1
Assay: fold change of Putrescine concentration vs plate DMSO controls (fold change (ratio)); higher = more amine produced, active = hit call of the paper (significant change in both replicates, either direction)
Conditions: incubation time: 27 h, anaerobic, 37 °C
Listing of entries alongside the reported fold change of Putrescine concentration.
MEASURE NAME: fold change of Putrescine concentration

| MOLECULE | RECORDED RESULT |
| --- | --- |
| Clc1ccc(COC(Cn2ccnc2)c2ccc(Cl)cc2Cl)c(Cl)c1 (stereo not given) [Miconazole] (20 µM) | 1.2 |
| OC[C@H](O)C(O)[C@@H](O)CO [L-Arabinitol] (50 µM) | 1.06 |
| COc1ccc(C(=O)c2ccccc2O)c(O)c1 [Dioxybenzone] (20 µM) | 0.86 |
| CC(C)(C#N)c1cc(Cn2cncn2)cc(C(C)(C)C#N)c1 [Anastrozole] (20 µM) | 1.06 |
| CC(=O)OCC(=O)[C@@]1(O)[C@H](C)C[C@H]2[C@@H]3CCC4=CC(=O)C=C[C@]4(C)[C@@]3(F)[C@@H](O)C[C@@]21C [Dexamethasone acetate] (20 µM) | 0.987 |
